EXPERIMENT NOTES: inhibitors of the yeast RAM network, primary screen, dse1pr::URA3 reporter, 5-FOA selection (AID 868);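 further: inhibition rescues growth on 5-FOA so higher OD means more RAM inhibition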
CONDITION: S. cerevisiae dse1pr::URA3 reporter, 5-FOA growth OD615, 2 d; at 50 µM; analog-sensitive cbk1-as2 kinase mutant strain
The campaign covered roughly 190,000 compounds. About 3,500 (1.8%) were called active.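 How the source made its calls: active means inhibition above a set limit, 3 SD over mean compound inhibition (cut at about 8.4% in these data); inactive means the rest.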 Only a selection was taken, and actives are over-represented in it overall.
Classes used: TRUE for active, FALSE for inactive

[[record]]
smiles_record = "COc1ccc(/C=C/C(=O)c2cc(Br)ccc(=O)c2O)cc1"
label_value = "FALSE"

[[record]]
smiles_record = "O=C(CCS(=O)(=O)Cc1ccccc1)Nc1ccc2c(c1)OCCO2"
label_value = "FALSE"

[[record]]
smiles_record = "Cc1ccc(-c2csc(N(Cc3ccco3)C(=O)c3cccs3)n2)cc1"
label_value = "TRUE"


Source listed as PubChem BioAssay AID868.
